Reference source: patent US20180016324A1

Biological target: T1, ZIKV (prM80E) with a C-terminal myc-myc-hexahistidine tag (Zika virus, UniProt A0A024B7W1 104-694)
T1 construct: also called ZIKV (prM80E)-mmH; ZIKV-mmH
Assay: SPR, mAb captured, 37C
EXPERIMENTAL READOUT: t½ pH 7.4/t½ pH 6.0
Write no unit; give the number alone.

Recorded t½ pH 7.4/t½ pH 6.0, per entry:
binder="H4H25704N (antibody, V domains shown) VH: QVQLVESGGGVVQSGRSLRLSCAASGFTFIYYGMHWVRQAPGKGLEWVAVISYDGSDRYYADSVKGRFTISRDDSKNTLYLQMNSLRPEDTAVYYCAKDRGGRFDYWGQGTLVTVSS VL: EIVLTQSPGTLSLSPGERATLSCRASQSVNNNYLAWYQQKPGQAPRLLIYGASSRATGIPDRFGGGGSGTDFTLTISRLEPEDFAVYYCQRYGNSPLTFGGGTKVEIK" reported_value=1.1
binder="H4H25641P (antibody, V domains shown) VH: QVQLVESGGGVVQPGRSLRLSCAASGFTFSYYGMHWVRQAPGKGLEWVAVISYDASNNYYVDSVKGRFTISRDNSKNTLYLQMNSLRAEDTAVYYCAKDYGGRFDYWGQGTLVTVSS VL: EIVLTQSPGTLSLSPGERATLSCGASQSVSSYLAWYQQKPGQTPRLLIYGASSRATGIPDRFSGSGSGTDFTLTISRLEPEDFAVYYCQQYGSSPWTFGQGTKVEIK" reported_value=0.8

For the next question, use this binder.
Qu. Name the reported t½ pH 7.4/t½ pH 6.0 value associated with the binder H4H25591P (antibody, V domains shown) VH: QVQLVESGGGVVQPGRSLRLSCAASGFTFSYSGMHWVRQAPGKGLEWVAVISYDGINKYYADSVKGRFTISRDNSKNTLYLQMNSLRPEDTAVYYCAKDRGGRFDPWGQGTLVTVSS VL: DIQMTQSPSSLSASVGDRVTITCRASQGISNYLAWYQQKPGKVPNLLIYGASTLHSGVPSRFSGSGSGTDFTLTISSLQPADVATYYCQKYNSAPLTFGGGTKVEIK
Ans. 2.2
